- target_or_system: P-gp (MDR1, ABCB1), human (Homo sapiens)
- Sequence (P08183 whole entry): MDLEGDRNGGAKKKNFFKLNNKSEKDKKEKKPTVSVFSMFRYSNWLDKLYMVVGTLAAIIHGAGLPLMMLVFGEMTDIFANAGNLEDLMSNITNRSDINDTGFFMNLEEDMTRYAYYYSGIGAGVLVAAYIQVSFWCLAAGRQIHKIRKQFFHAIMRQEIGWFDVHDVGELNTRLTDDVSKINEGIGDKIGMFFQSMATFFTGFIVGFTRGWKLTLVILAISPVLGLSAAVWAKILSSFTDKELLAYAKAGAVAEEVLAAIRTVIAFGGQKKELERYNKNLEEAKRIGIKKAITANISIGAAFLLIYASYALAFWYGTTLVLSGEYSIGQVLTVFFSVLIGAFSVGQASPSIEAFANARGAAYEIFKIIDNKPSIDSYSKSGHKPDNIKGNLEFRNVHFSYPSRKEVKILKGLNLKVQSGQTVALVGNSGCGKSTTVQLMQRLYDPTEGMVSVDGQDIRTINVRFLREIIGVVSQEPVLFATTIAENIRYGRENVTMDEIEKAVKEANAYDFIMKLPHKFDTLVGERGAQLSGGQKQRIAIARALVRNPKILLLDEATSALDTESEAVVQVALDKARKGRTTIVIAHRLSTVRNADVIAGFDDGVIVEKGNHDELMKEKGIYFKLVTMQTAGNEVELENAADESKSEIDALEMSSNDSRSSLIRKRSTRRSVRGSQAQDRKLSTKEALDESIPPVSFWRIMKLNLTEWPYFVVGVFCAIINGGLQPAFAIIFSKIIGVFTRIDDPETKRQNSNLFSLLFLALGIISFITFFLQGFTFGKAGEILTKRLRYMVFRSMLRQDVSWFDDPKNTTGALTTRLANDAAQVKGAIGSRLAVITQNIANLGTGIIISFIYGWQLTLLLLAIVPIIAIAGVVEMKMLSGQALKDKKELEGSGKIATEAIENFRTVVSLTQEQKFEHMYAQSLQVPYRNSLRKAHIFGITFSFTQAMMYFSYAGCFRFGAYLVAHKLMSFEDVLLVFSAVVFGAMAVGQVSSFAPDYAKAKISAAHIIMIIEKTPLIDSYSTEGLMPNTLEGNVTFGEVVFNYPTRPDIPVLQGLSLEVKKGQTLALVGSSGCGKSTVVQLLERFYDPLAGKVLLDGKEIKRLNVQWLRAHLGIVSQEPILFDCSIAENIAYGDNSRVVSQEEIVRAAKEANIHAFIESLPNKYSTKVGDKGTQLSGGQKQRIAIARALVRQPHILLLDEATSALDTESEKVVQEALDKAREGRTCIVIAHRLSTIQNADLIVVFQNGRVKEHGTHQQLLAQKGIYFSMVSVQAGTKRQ
- test_name: in vitro
- measurement_conditions: dog, MDCK-MDR1, pH 7.4
Consider the following molecules and their measured Papp B→A at 60 min readings.
readout_type: Papp B→A at 60 min (×10⁻⁶ cm/s)

>>> numeric_readout("CC(/C=C/C=C(\\C)C(=O)O[C@@H]1O[C@H](CO[C@@H]2O[C@H](CO)[C@@H](O)[C@H](O)[C@H]2O)[C@@H](O)[C@H](O)[C@H]1O)=C\\C=C\\C=C(C)\\C=C\\C=C(/C)C(=O)O[C@@H]1O[C@H](CO[C@@H]2O[C@H](CO)[C@@H](O)[C@H](O)[C@H]2O)[C@@H](O)[C@H](O)[C@H]1O")
3.12
>>> numeric_readout("CC(/C=C/C=C(\\C)C(=O)O)=C\\C=C\\C=C(C)\\C=C\\C=C(/C)C(=O)O")
5.84
>>> numeric_readout("O=c1cc(-c2ccc(O)cc2)oc2cc(O)cc(O)c12")
19.1
>>> numeric_readout("CC1(C)CC[C@]2(C(=O)O)CC[C@]3(C)C(=CC[C@@H]4[C@@]5(C)CC[C@H](O)C(C)(C)[C@@H]5CC[C@]43C)[C@@H]2C1")
0.35

====

- target_or_system: P-gp (MDR1, ABCB1), human (Homo sapiens)
- test_name: in vitro
- measurement_conditions: dog, MDCK-MDR1, pH 7.4
readout_type: Papp A→B at 60 min (×10⁻⁶ cm/s)

>>> numeric_readout("O=c1cc(-c2ccc(O)cc2)oc2cc(O)cc(O)c12 [Apigenin]")
9.71
>>> numeric_readout("CC1(C)CC[C@]2(C(=O)O)CC[C@]3(C)C(=CC[C@@H]4[C@@]5(C)CC[C@H](O)C(C)(C)[C@@H]5CC[C@]43C)[C@@H]2C1 [Oleanoic acid, Oleanolic acid]")
0.174
>>> numeric_readout("CC(/C=C/C=C(\\C)C(=O)O[C@@H]1O[C@H](CO[C@@H]2O[C@H](CO)[C@@H](O)[C@H](O)[C@H]2O)[C@@H](O)[C@H](O)[C@H]1O)=C\\C=C\\C=C(C)\\C=C\\C=C(/C)C(=O)O[C@@H]1O[C@H](CO[C@@H]2O[C@H](CO)[C@@H](O)[C@H](O)[C@H]2O)[C@@H](O)[C@H](O)[C@H]1O [Crocin]")
0.22
>>> numeric_readout("CC(/C=C/C=C(\\C)C(=O)O)=C\\C=C\\C=C(C)\\C=C\\C=C(/C)C(=O)O [Crocetin]")
1.67

====

The following compounds are listed with their measured Papp B→A at 1 h values.
- target_or_system: UniProtKB P08183
- test_name: in vitro
- measurement_conditions: dog, MDCK-MDR1, pH 7.4
readout_type: Papp B→A at 1 h (×10⁻⁶ cm/s)

>>> numeric_readout("CC1=C(C)C(=O)O[C@@H]([C@@H](C)[C@H]2CC[C@H]3[C@@H]4[C@@H]5O[C@@H]5[C@@]5(O)CC=CC(=O)[C@]5(C)[C@H]4CC[C@]23C)C1 [Withanolide B]")
13.3
>>> numeric_readout("CC1=C(C)C(=O)O[C@@H]([C@](C)(O)[C@H]2CC[C@H]3[C@@H]4[C@@H]5O[C@@H]5[C@@]5(O)CC=CC(=O)[C@]5(C)[C@H]4CC[C@]23C)C1 [Withanolide A]")
22.2
>>> numeric_readout("CC1=C(C=O)C(C)(C)CC=C1 [Safranal]")
43.3
>>> numeric_readout("O=C(O)[C@H]1O[C@@H](Oc2cc(O)c3c(=O)cc(-c4ccc(O)c(O)c4)oc3c2)[C@H](O)[C@@H](O)[C@@H]1O [Luteolin-7-glucoronide, Luteolin 7-glucuronide]")
0.076
